Source of measurements: paper PMC11396667

# Test system: Enterococcus faecalis ATCC 29212
# assayNotes: MBC, agar aliquot subculture method, EF
# Assay type: cell-based
# conditionLabel: ATCC29212, 99.9% decrease in CFU, 24 h, 37 °C
observedProperty: MBC (µM)
A number alone suffices; assume µM.

Look at this compound and give its reported MBC. C#CCOc1ccccc1NS(=O)(=O)c1ccc(O)c2ncccc12 [3f]
362

Look at this compound and give its reported MBC. C#CCOc1ccc(NS(=O)(=O)c2ccc(O)c3ncccc23)cc1 [3d]
362

Look at this compound and give its reported MBC. CC1(C)S[C@@H]2[C@H](NC(=O)[C@H](N)c3ccccc3)C(=O)N2[C@H]1C(=O)O [AMP, ampicillin, reference compound]
2.81

Look at this compound and give its reported MBC. C#CCOc1cccc(NS(=O)(=O)c2ccc(O)c3ncccc23)c1 [3e]
362

====

# System: C-32 (human amelanotic melanoma) cells
# assayNotes: WST-1 cell viability assay, C-32
# Type: cell-based
# conditionLabel: Homo sapiens; WST-1, 72 h exposure, ± SD, n = 6
observedProperty: log10(IC50) (log10 of the value in µM)
Hello, just confirming the data are log10 of IC50 with units of µM.

Look at this compound and give its reported log10(IC50). COc1ccc(S(=O)(=O)N(C)Cc2cn(Cc3ccccc3)nn2)c2cccnc12
1.63

Look at this compound and give its reported log10(IC50). C#CCOc1ccc(NS(=O)(=O)c2ccc(O)c3ncccc23)cc1
1.02

Look at this compound and give its reported log10(IC50). C#CCNS(=O)(=O)c1ccc(O)c2ncccc12
1.30

Look at this compound and give its reported log10(IC50). C#CCOc1cccc(NS(=O)(=O)c2ccc(O)c3ncccc23)c1
0.93

Look at this compound and give its reported log10(IC50). C#CCN(C)S(=O)(=O)c1ccc(OC)c2ncccc12
1.85

Look at this compound and give its reported log10(IC50). C#CCOc1ccc(NS(=O)(=O)c2ccc(OC)c3ncccc23)cc1
1.94

Look at this compound and give its reported log10(IC50). C#CCOc1ccccc1NS(=O)(=O)c1ccc(O)c2ncccc12
1.47

Look at this compound and give its reported log10(IC50). C#CCOc1ccccc1NS(=O)(=O)c1ccc(OC)c2ncccc12
1.44

Look at this compound and give its reported log10(IC50). C#CCN(C)S(=O)(=O)c1ccc(O)c2ncccc12
0.99

Look at this compound and give its reported log10(IC50). C#CCOc1cccc(NS(=O)(=O)c2ccc(OC)c3ncccc23)c1
1.51

Look at this compound and give its reported log10(IC50). COc1ccc(S(=O)(=O)NCc2cn(Cc3ccc(F)cc3)nn2)c2cccnc12
1.95

Look at this compound and give its reported log10(IC50). COc1cccc2c1C(=O)c1c(O)c3c(c(O)c1C2=O)C[C@@](O)(C(=O)CO)C[C@@H]3O[C@H]1C[C@H](N)[C@H](O)[C@H](C)O1 [DOX, doxorubicin, reference compound]
-0.52

Look at this compound and give its reported log10(IC50). C#CC(C)(C)NS(=O)(=O)c1ccc(O)c2ncccc12
1.34

Look at this compound and give its reported log10(IC50). C#CC(C)(C)NS(=O)(=O)c1ccc(OC)c2ncccc12
1.61

====

# Test system: S. aureus ATCC 29213
# assayNotes: MTT assay of bacterial respiratory activity
# Type: cell-based, Staphylococcus aureus
# conditionLabel: S. aureus ATCC 29213
observedProperty: Conc.: the same concentration as multiple of MBC

Look at this compound and give its reported Conc.: the same concentration as multiple of MBC. C#CCOc1ccc(NS(=O)(=O)c2ccc(O)c3ncccc23)cc1
1× MIC (1× MBC)

Look at this compound and give its reported Conc.: the same concentration as multiple of MBC. C#CC(C)(C)NS(=O)(=O)c1ccc(O)c2ncccc12
2× MIC (2× MBC)

Look at this compound and give its reported Conc.: the same concentration as multiple of MBC. C#CCOc1cccc(NS(=O)(=O)c2ccc(O)c3ncccc23)c1
1× MIC (1× MBC)

Look at this compound and give its reported Conc.: the same concentration as multiple of MBC. C#CCN(C)S(=O)(=O)c1ccc(O)c2ncccc12
2× MIC (2× MBC)

Look at this compound and give its reported Conc.: the same concentration as multiple of MBC. C#CCNS(=O)(=O)c1ccc(O)c2ncccc12
1× MIC (1× MBC)

Look at this compound and give its reported Conc.: the same concentration as multiple of MBC. C#CCOc1ccccc1NS(=O)(=O)c1ccc(O)c2ncccc12
1× MIC (1× MBC)

====

# System: S. aureus ATCC 29213
# assayNotes: MTT assay of bacterial respiratory activity
# Format: cell-based, Staphylococcus aureus
# conditionLabel: 24 h, at the lowest multiple of MIC giving at least 70% inhibition
observedProperty: S. aureus Respiration Inhibition

Look at this molecule and give its reported S. aureus Respiration Inhibition. C#CCOc1ccccc1NS(=O)(=O)c1ccc(O)c2ncccc12 [3f]
81.6%

Look at this molecule and give its reported S. aureus Respiration Inhibition. C#CCOc1cccc(NS(=O)(=O)c2ccc(O)c3ncccc23)c1 [3e]
73.7%

Look at this molecule and give its reported S. aureus Respiration Inhibition. C#CCNS(=O)(=O)c1ccc(O)c2ncccc12 [3a]
92.5%

Look at this molecule and give its reported S. aureus Respiration Inhibition. C#CCN(C)S(=O)(=O)c1ccc(O)c2ncccc12 [3c]
95.2%

Look at this molecule and give its reported S. aureus Respiration Inhibition. C#CCOc1ccc(NS(=O)(=O)c2ccc(O)c3ncccc23)cc1 [3d]
73.0%

Look at this molecule and give its reported S. aureus Respiration Inhibition. C#CC(C)(C)NS(=O)(=O)c1ccc(O)c2ncccc12 [3b]
94.4%

====

observedProperty: melting point

Look at this molecule and give its reported melting point. COc1ccc(S(=O)(=O)NCc2cn(-c3ccc(Cl)cc3)nn2)c2cccnc12
224 to 226 °C

Look at this molecule and give its reported melting point. COc1ccc(S(=O)(=O)N(C)Cc2cn(Cc3ccccc3)nn2)c2cccnc12
214 to 216 °C

Look at this molecule and give its reported melting point. COc1ccc(S(=O)(=O)NCc2cn(Cc3ccccc3)nn2)c2cccnc12
170 to 172 °C

Look at this molecule and give its reported melting point. COc1ccc(S(=O)(=O)NCc2cn(CSc3ccccc3)nn2)c2cccnc12
205 to 207 °C

Look at this molecule and give its reported melting point. COc1ccc(S(=O)(=O)NC(C)(C)c2cn(Cc3ccccc3)nn2)c2cccnc12
153 to 155 °C

Look at this molecule and give its reported melting point. COc1ccc(S(=O)(=O)NCc2cn(Cc3ccc(F)cc3)nn2)c2cccnc12
194 to 196 °C

Look at this molecule and give its reported melting point. C#CCOc1cccc(NS(=O)(=O)c2ccc(OC)c3ncccc23)c1
190 to 192 °C

Look at this molecule and give its reported melting point. C#CCN(C)S(=O)(=O)c1ccc(OC)c2ncccc12
112 to 114 °C

Look at this molecule and give its reported melting point. C#CCOc1ccccc1NS(=O)(=O)c1ccc(OC)c2ncccc12
187 to 189 °C

Look at this molecule and give its reported melting point. C#CCNS(=O)(=O)c1ccc(OC)c2ncccc12
161 to 163 °C

Look at this molecule and give its reported melting point. C#CCOc1ccc(NS(=O)(=O)c2ccc(OC)c3ncccc23)cc1
217 to 219 °C

Look at this molecule and give its reported melting point. C=CCn1cc(CNS(=O)(=O)c2ccc(OC)c3ncccc23)nn1
159 to 161 °C

Look at this molecule and give its reported melting point. C#CC(C)(C)NS(=O)(=O)c1ccc(OC)c2ncccc12
217 to 219 °C

Look at this molecule and give its reported melting point. COc1ccc(S(=O)(=O)Nc2ccc(OCc3cn(Cc4ccccc4)nn3)cc2)c2cccnc12
139 to 141 °C

====

# Tested on: methicillin-resistant S. aureus SA 630
# assayNotes: MIC, microtitration broth method, MRSA2
# Format: cell-based
# conditionLabel: Staphylococcus aureus; 24 h, 37 °C, CaMH broth
observedProperty: MIC (µM)
A number alone suffices; assume µM.

Look at this molecule and give its reported MIC. C#CCNS(=O)(=O)c1ccc(O)c2ncccc12
244

Look at this molecule and give its reported MIC. C#CC(C)(C)NS(=O)(=O)c1ccc(O)c2ncccc12
110

Look at this molecule and give its reported MIC. Cc1onc(-c2ccccc2)c1C(=O)N[C@@H]1C(=O)N2[C@@H]1SC(C)(C)[C@@H]2C(=O)O [OXA, oxacillin, reference compound]
29.7

Look at this molecule and give its reported MIC. C#CCOc1ccc(NS(=O)(=O)c2ccc(O)c3ncccc23)cc1
90.4

Look at this molecule and give its reported MIC. C#CCOc1ccccc1NS(=O)(=O)c1ccc(O)c2ncccc12
90.4

Look at this molecule and give its reported MIC. C#CCN(C)S(=O)(=O)c1ccc(O)c2ncccc12
29

Look at this molecule and give its reported MIC. C#CCOc1cccc(NS(=O)(=O)c2ccc(O)c3ncccc23)c1
90.4
